experiment: Plasma pharmacokinetics, acute study (single oral administration); assay type: in vivo, CD1 female mice; conditions: female, CD1, mouse, plasma, po, 200 mg/kg, plasma analyte, single oral NCI-nFeR, 4-HPR dose 200mg/Kg, Suppl. Table 2 B
OBSERVATION_TYPE: AUC(0-t) (ng·h/mL)
One number for each entry, in ng·h/mL.

Notebook: CC1=C(/C=C/C(C)=C/C=C/C(C)=C/C(=O)Nc2ccc(O)cc2)C(C)(C)CCC1 [4-HPR, 4-hydroxy (phenyl)retinamide, reference compound] , AUC(0-t) read as 97900

----------
Assay: Plasma pharmacokinetics, acute study (single oral administration)
Type: in vivo, CD1 female mice
Conditions: female, CD1, mouse, plasma, po, 200 mg/kg, plasma analyte, mice, single oral Bio-nFeR 200 mg/kg, Suppl. Table 2 A
Description: The experiments were performed in CD1 female mice, 7 weeks of age, (body weight 25 ± 2 g) obtained from Envigo RMS SrL (Udine, Italy). They were maintained under specific-pathogen-free conditions with constant temperature and humidity, according to institutional guidelines regularly checked by a certified veterinarian. […]
OBSERVATION_TYPE: Cmax

Field Cmax (entry CC1=C(/C=C/C(C)=C/C=C/C(C)=C/C(=O)Nc2ccc(O)cc2)C(C)(C)CCC1 [4-HPR, 4-hydroxy (phenyl)retinamide, reference compound] ) reads 6840 ng/mL

----------
experiment: Plasma pharmacokinetics, chronic study (150 mg/Kg single vs daily for 2 weeks); format: in vivo, CD1 female mice; conditions: female, CD1, mouse; plasma analyte, oral Bio-nFeR 150 mg/kg, Day 1; read-out: Tmax
OBSERVATION_TYPE: Tmax (h)
Give bare numbers, in h.

Input CC1=C(/C=C/C(C)=C/C=C/C(C)=C/C(=O)Nc2ccc(O)cc2)C(C)(C)CCC1 [4-HPR, 4-hydroxy (phenyl)retinamide, reference compound] . Output Tmax: 20

----------
assay: Tumour pharmacokinetics: fenretinide and metabolite levels in plasma and tumours of xenografted mice; format: in vivo; conditions: female, NOD-SCID, mouse, plasma, oral; colon cancer xenograft mice, Bio-nFeR 150 mg/kg, Suppl. Table 5; read-out: Mean concentration (±sd), Plasma
OBSERVATION_TYPE: concentration at 3 h (ng/mL)
Answers are plain numbers, in ng/mL.

The recorded concentration at 3 h for CC1=C(/C=C/C(C)=C/C=C/C(C)=C/C(=O)Nc2ccc(O)cc2)C(C)(C)CCC1 [4-HPR, 4-hydroxy (phenyl)retinamide, reference compound] is 4990

----------
test: Plasma pharmacokinetics, chronic study (150 mg/Kg single vs daily for 2 weeks); type: in vivo, CD1 female mice; conditions: female, CD1, mouse; plasma analyte, oral Bio-nFeR 150 mg/kg daily, 2 week
OBSERVATION_TYPE: Cmax at 2 weeks (ng/mL)
Give bare numbers, in ng/mL.

Query CC1=C(/C=C/C(C)=C/C=C/C(C)=C/C(=O)Nc2ccc(O)cc2)C(C)(C)CCC1 [4-HPR, 4-hydroxy (phenyl)retinamide, reference compound] yields Cmax at 2 weeks of 6810

----------
experiment: Plasma pharmacokinetics, acute study (single oral administration); format: in vivo, CD1 female mice; settings: female, CD1, mouse, plasma, po, 200 mg/kg, plasma analyte, single oral NCI-nFeR, 4-HPR dose 200mg/Kg, Suppl. Table 2 B; read-out: Tmax
OBSERVATION_TYPE: Tmax (h)
Numbers only, in h.

Looking up CC1=C(/C=C/C(C)=C/C=C/C(C)=C/C(=O)Nc2ccc(O)cc2)C(C)(C)CCC1 [4-HPR, 4-hydroxy (phenyl)retinamide, reference compound] , I see its Tmax listed as 4

FYI, the data here is from paper PMC6706930.
